Tested on: SR leukemia
Assay: NCI tumour cell line growth inhibition, 48 h
Task for the reader: assign each of the following compounds its reported TGI.

Examples from the recorded data:
compound	TGI
O=C1CNc2cc(N3CCN(c4ccccc4)CC3)ccc2N1	> 100 µM
Cc1c(NC(=O)c2cc(C(N)=O)nc3cc(F)ccc23)c(C(F)(F)F)nn1Cc1ccc(C#N)cc1	> 100 µM
CC1CC2=C(C(=O)O1)C(c1ccccc1)Nc1ccccc1N2 (stereo not given)	> 100 µM
COc1cc(C(=O)/C=C/c2c(-c3cccs3)nc3sc(C)cn23)cc(OC)c1OC	5.46 µM

# evaluate next
For the compound CC12CCC(C(=O)n3c1nc1ccccc13)C(C)(C)O2 (stereo not given) , what TGI is on record?
> 100 µM

---

Test system: OVCAR-5 ovarian
Test: NCI tumour cell line growth inhibition, 48 h; in the data active = GI50 below about 0.43 µM; inactive = the rest
# valid calls are active, inactive; nothing else

Use these answered entries as a reference point.
entry_smiles	group_label
COc1ccc2c(CCC(c3ccccc3)c3ccccc3)c3[n+](cc2c1OC)CCc1cc2c(cc1-3)OCO2	inactive
CCOC(=O)c1cc(C(=O)c2ccc(Cl)cc2)n2ccc(-c3cc[n+](CC(=O)c4ccc(OC)cc4)cc3)cc12	inactive
c1cc(N2CCCC2)c2nc(-c3[nH]ncc3Nc3ncnc4[nH]ccc34)[nH]c2c1	active

Entry `COc1cc2c3c(n(CCCN=[N+]=[N-])c(=O)c2cc1OC)-c1ccc(C#N)cc1C3=O` : call = ?
inactive

---

Test system: CAKI-1 renal
Assay: NCI tumour cell line growth inhibition, 48 h
Decide using TGI: a value greater than or equal to 20 µM is T, a smaller one is F.

Would you please look over these solved cases?
compound	group_label
COc1cc2c(cc1OC)C(=O)/C(=C/c1ccccc1)CC2	T
O=C1c2cccc3cc4ccccc4c(c23)C(=O)N1CCNCCNCCNCCN1C(=O)c2cccc3cc4ccccc4c(c23)C1=O	F
Cc1nc(-c2nc(C)c(C(=O)/C=C/c3ccc(N(C)C)cc3)s2)sc1C(=O)/C=C/c1ccc(N(C)C)cc1	T
COc1ccc(C2=NN(C(=O)c3ccc(Cl)cc3)C(O)(c3cc(F)c(Cl)cc3Cl)C2)cc1OC (configuration not stated)	T
CC(C)(C)c1ccc(O)c(C[N+](C)(C)C)c1	T

// inclusive: TGI at least 20 µM? input: `COC1(OC)C[C@H](C)[C@@]23O[C@]24C2=CC(=O)C=CC2=N[C@H]3C#C/C=C\C#C[C@]14O`
F

Again, but for CC(NC(=O)C(CC(=O)OCc1ccccc1)NC(=O)OCc1ccccc1)c1ccccc1 (configuration not stated)
T

Item: `O=C(Cc1csc2nc(-c3ccc(Br)cc3)cn12)N/N=C/c1cc(Br)ccc1O`
T

---

Tested on: SK-MEL-2 melanoma
Experiment: NCI tumour cell line growth inhibition, 48 h
Please respond with reported TGI for every item in the list.
Answers are plain numbers, in µM.

Please review the entries below; each comes with its answer.
molecule	TGI (µM)
CCC[CH2][Sn]([CH2]CCC)([O]C(=O)Cc1ccc(F)cc1)[O]C(=O)Cc1ccc(F)cc1	1.48
O=C1Nc2c(Cl)cc(Cl)cc2/C1=N/N=C/c1ccccc1O	39.9
CCCCC/C=C\C=C1\C(=O)C=C[C@@H]1C/C=C\CCCC(=O)O	9.85

Turning to the following molecule.
Need TGI, item CC(=O)Oc1ccc2c(c1OC(C)=O)CCC1C2=CC[C@]2(C)C(=O)CCC12 (some centres undefined)
29.5

---

For each record, write down the corresponding GI50.
Tested on: M14 melanoma
Experiment: NCI tumour cell line growth inhibition, 48 h

Example entries and their recorded answers appear below.
compound	GI50
N#CC(C#N)=C/C=C(\Sc1ccc(F)c(Cl)c1)c1ccc(Cl)cc1	0.807 µM
O=C1OCC2=C1C(c1cccc(F)c1)c1cc3c(cc1N2CCO)CCC3 (stereo not given)	0.0491 µM
Nc1nc(-c2cccc3ccccc23)cc2ccccc12	0.549 µM
CC(C)(C)c1[nH]nc2c1C(c1cc3ccccc3[nH]c1=O)Nc1cc(C(=O)Nc3ccc(Cl)cc3)ccc1N2 (stereo not given)	2.12 µM

Then this compound:
Name the reported GI50 value associated with the compound `COc1ccc(C2=C(c3cn(C)c4ccccc34)C(=O)NC2=O)cc1`
19.4 µM

---

Give TGI for every item shown.
Tested on: NCI-H460 lung
Assay: NCI tumour cell line growth inhibition, 48 h

compound	result_value
COc1ccccc1N1C(=O)C2C3c4ccccc4C(OC(C)=O)(c4ccccc43)C2C1=O (centres undefined)	> 100 µM
CON(C)C(=O)CCCO	> 100 µM
Cc1ccc(C[N+](C)(C)N)cc1C	> 10 µM

Parameter requested: TGI. Apply to each item below.
1. COc1cc(C(=O)/C=C/c2c(-c3cccs3)nc3sc(C)cn23)cc(OC)c1OC
2. CC#Cc1nc2ccccc2c(=O)[nH]1

["5.3 µM", "20.2 µM"]

Please give TGI, item by item, for the list that follows.
1. COc1c(CC(=O)c2ccccc2)c2ccccc2n1C(C)=O
2. COc1ccc2[nH]c3c(C)c4ccnc(NCCCN(C)CCCNc5ccc6nnn7c8ccccc8c(=O)c5c67)c4c(C)c3c2c1

1. > 100 µM
2. 0.492 µM

---

Provide the reported TGI of each item.
Test system: MALME-3M melanoma
Experiment: NCI tumour cell line growth inhibition, 48 h

Below, each entry is followed by its recorded TGI result.
compound	measured_target	result_value
N#CCCC(CC#N)N1CCN(C(CC#N)CCC#N)CC1 (centres undefined)	MALME-3M melanoma	> 100 µM
COC(=O)NC(Nc1ccc(Cl)cc1Cl)(C(F)(F)F)C(F)(F)F	MALME-3M melanoma	> 100 µM
Cc1ccc(C(=O)Nc2ccc(S(=O)(=O)O)c3cc(S(=O)(=O)O)cc(S(=O)(=O)O)c23)cc1NC(=O)Nc1cc(C(=O)Nc2ccc(S(=O)(=O)O)c3cc(S(=O)(=O)O)cc(S(=O)(=O)O)c23)ccc1C	MALME-3M melanoma	> 87.5 µM
Cc1nc(-c2nc(C)c(C(=O)/C=C/c3ccc(N(C)C)cc3)s2)sc1C(=O)/C=C/c1ccc(N(C)C)cc1	MALME-3M melanoma	> 100 µM
C/C(CC(=O)Nc1ccccc1[N+](=O)[O-])=N\NC(N)=O	MALME-3M melanoma	> 100 µM
O=C1C=CC(=O)c2c(O)c(CO)c(CO)c(O)c21	MALME-3M melanoma	0.467 µM

Hi, could you look up TGI for each item in my list?
1. COc1cc(/C=N/N=C(\N)NO)cc(Cl)c1O
2. O=C1CCCn2c(nc3ccccc32)N1
3. COc1cc(/C=C2\CC3C4CCC5=CC(=O)CC[C@]5(C)C4CC[C@]3(C)C2=O)ccc1OCCCn1ccnc1 (some centres undefined)

> 100 µM
> 100 µM
13.5 µM

---

Assign TGI to each entry below.
Test system: OVCAR-4 ovarian
Experiment: NCI tumour cell line growth inhibition, 48 h

compound	result_value
COc1c(CC(=O)c2ccccc2)c2ccccc2n1C(C)=O	> 100 µM

Hi there! I need TGI for each item below, if you can.
1. CC(=O)OCC1CCC(=C2C(=O)OC(C)(C)OC2=O)N1 (stereo unspecified)
2. O=C1C[C@H](Sc2ccccc2)C2(OCCO2)[C@H]2ON3CCC[C@@H]3[C@@H]12
3. Cc1c(NC(=O)c2cc(C(N)=O)nc3cc(F)ccc23)c(C(F)(F)F)nn1Cc1ccc(C#N)cc1
4. CCN1C/C(=C\c2cc(OC)c(OC)c(OC)c2)C2=NN(c3ccccc3)C(c3cc(OC)c(OC)c(OC)c3)C2C1 (stereo unspecified)

1. > 100 µM
2. 9.14 µM
3. > 76.9 µM
4. 24.6 µM

// input: 2 compounds below; output: TGI for each
1. O=c1[nH]c2cc(C(F)(F)F)ccc2nc1CBr
2. CCCCC1=C(Br)C(=C(Br)Br)OC1=O

["32.3 µM", "3.32 µM"]

Dear reader, for each entry below, please note its TGI.
1. COc1ccc(C2=NN(C(=O)c3ccc(Cl)cc3)C(O)(c3cc(F)c(Cl)cc3Cl)C2)cc1OC (stereo unspecified)
2. CON(C)C(=O)CCCO
3. O=C1CCCn2c(nc3ccccc32)N1

1. > 100 µM
2. > 100 µM
3. > 100 µM

Please report the recorded TGI for O=P(O)(OP(=O)(O)c1ccccc1)c1ccccc1 (tested in a mixture with another compound) .
> 100 µM

---

Would you kindly list TGI for each of these compounds?
Test system: COLO 205 colon
Test: NCI tumour cell line growth inhibition, 48 h
Give bare numbers, in µM.

compound	TGI [µM]
COc1cc2c(cc1OC)C(=O)/C(=C/c1ccccc1)CC2	38.8

I need TGI for every entry listed below, if you could help.
1. COC1(OC)C[C@H](C)[C@@]23O[C@]24C2=CC(=O)C=CC2=N[C@H]3C#C/C=C\C#C[C@]14O
2. CC(C)(Cl)C(Cl)CC/C(CBr)=C(\Cl)CCl (configuration not stated)

1. 2.14
2. 11.1
